Experiment Summary: Plasma pharmacokinetics after gavage in rats
Type: in vivo, Sprague-Dawley rats
Run Conditions: male, Sprague-Dawley, rat, po, relative to baicalein ingredient, based on baicalein in plasma, gavage 40 mg/kg
Assay Readout: bioavailability

• O=c1cc(-c2ccccc2)oc2cc(O)c(O)c(O)c12 [BA, baicalein] = 100%

* * *

Experiment Summary: Plasma pharmacokinetics after gavage in rats
Format: in vivo, Sprague-Dawley rats
Run Conditions: male, Sprague-Dawley, rat, po, baicalein in plasma, gavage 40 mg/kg, read-out: MRT (0-t) (converted)
Assay Readout: MRT last (h)

- O=c1cc(-c2ccccc2)oc2cc(O)c(O)c(O)c12 [BA, baicalein]: 4

* * *

Experiment Summary: Plasma pharmacokinetics after gavage in rats
Format: in vivo, Sprague-Dawley rats
Run Conditions: male, Sprague-Dawley, rat, po, baicalein in plasma, gavage 40 mg/kg
Assay Readout: Tmax

- O=c1cc(-c2ccccc2)oc2cc(O)c(O)c(O)c12: 1.25 h
